Cited source: patent US11332499B2

Reported IC50 values for a set of substances
Molecular target: MC4R (Homo sapiens, UniProt P32245)
Sequence (P32245 whole entry): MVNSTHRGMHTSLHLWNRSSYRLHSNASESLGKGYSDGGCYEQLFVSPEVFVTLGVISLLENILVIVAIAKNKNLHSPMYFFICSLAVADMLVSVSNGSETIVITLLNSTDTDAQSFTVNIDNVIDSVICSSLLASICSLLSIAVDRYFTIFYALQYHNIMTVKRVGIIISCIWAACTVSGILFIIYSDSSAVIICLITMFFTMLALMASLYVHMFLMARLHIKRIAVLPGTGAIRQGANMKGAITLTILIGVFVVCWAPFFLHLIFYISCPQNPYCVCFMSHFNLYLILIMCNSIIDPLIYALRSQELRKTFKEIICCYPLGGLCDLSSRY
Test: Competitive radioligand binding, displacement of 125I-AGRP, HEK293 cells expressing hMC4R
Set-up: expressed in transfected cells
Conditions: Table 10

[
  {
    "Substance": "c[Pro-Arg-Phe-Phe-Glu-Ala-Phe-DPro] [Peptide 8 (Example 1)]",
    "Test Target": "MC4R (Homo sapiens, UniProt P32245)",
    "IC50": "1.4 µM"
  },
  {
    "Substance": "c[Pro-Arg-Phe-Phe-Asp-Ala-Phe-DPro] [Peptide 7 (Example 1)]",
    "Test Target": "MC4R (Homo sapiens, UniProt P32245)",
    "IC50": "1.3 µM"
  }
]

----------
Reported fold decreased antagonist potency relative to MDE3-119-8c at the hMC4R values for a set of substances
Biological target: MC4R (Homo sapiens)
Assay: AlphaScreen cAMP assay, antagonist activity (Schild, NDP-MSH) at hMC4R
Format: cell-based
Set-up: expressed in transfected cells
Conditions: Example 5
Experimental Endpoint: fold decreased antagonist potency relative to MDE3-119-8c at the hMC4R (fold)

[
  {
    "Substance": "c[Pro-Arg-Phe-Phe-Val-Ala-Phe-DPro] [Peptide 13 (Example 1)]",
    "Measured": 310
  },
  {
    "Substance": "c[Pro-Arg-Phe-Phe-Asp-Ala-Phe-DPro] [Peptide 7 (Example 1)]",
    "Measured": 90
  },
  {
    "Substance": "c[Pro-Arg-Phe-Phe-Abu-Ala-Phe-DPro] [Peptide 4 (Example 1)]",
    "Measured": 19
  },
  {
    "Substance": "c[Pro-Arg-Phe-Phe-Glu-Ala-Phe-DPro] [Peptide 8 (Example 1)]",
    "Measured": 70
  }
]

----------
Target: MC4R (Homo sapiens)
Assay: AlphaScreen cAMP assay, inverse agonist activity at hMC4R
Type: cell-based
Parameters: expressed in transfected cells
Conditions: Table 10
Experimental Endpoint: hMC4R Inverse Agonist, decrease from basal signal

[
  {
    "Substance": "c[Pro-Arg-Phe-Phe-Asn-Ala-Phe-DPro] [Peptide 1 (Example 1)]",
    "Test Target": "MC4R (Homo sapiens)",
    "Measured": "(-30%)"
  },
  {
    "Substance": "c[Pro-Arg-Phe-Phe-DDap-Ala-Phe-DPro] [Peptide 9 (Example 1)]",
    "Test Target": "MC4R (Homo sapiens)",
    "Measured": "(-30%)"
  },
  {
    "Substance": "c[Pro-Arg-Phe-Phe-His-Ala-Phe-DPro] [Peptide 10 (Example 1)]",
    "Test Target": "MC4R (Homo sapiens)",
    "Measured": "(-30%)"
  }
]

----------
Target: MC4R (Homo sapiens)
Experiment: Competitive radioligand binding, displacement of 125I-NDP-MSH, HEK293 cells expressing hMC4R
Parameters: expressed in transfected cells
Details: Table 10
Reported IC50 values for a set of substances

[
  {
    "Substance": "c[Pro-Arg-Phe-Phe-Asp-Ala-Phe-DPro] [Peptide 7 (Example 1)]",
    "IC50 / µM": 3.6
  },
  {
    "Substance": "c[Pro-Arg-Phe-Phe-Glu-Ala-Phe-DPro] [Peptide 8 (Example 1)]",
    "IC50 / µM": 2.5
  }
]
